- System: Hepatitis C virus
- method_description: Antiviral activity against HCV genotype 4a chimera with HCV genotype 1b Con1 backbone containing HCV genotype 4a NS5B gene infected in human HuH7 cells assessed as reduction in replicon RNA levels incubated for 5 days by RT-PCR assay
- Assay type: functional, cell-based, Hepacivirus hominis
- condition_notes: Huh-7, 120 h
pEC50: −log10 of the molar value.

- smiles_data: "CCOC(=O)CCc1ccccc1O[P@@](=O)(N[C@@H](C)C(=O)OCC)OC[C@H]1O[C@@H](n2cnc3c(N)nc(N)nc32)[C@](C)(O)[C@H]1O"
  pEC50: 6.41

###

- Tested on: HepG2
- method_description: Mitochondrial toxicity in human HepG2 cells assessed as induction of lactic acid levels at 10 uM incubated for 14 days
- Assay type: cell-based
- condition_notes: hepg2, 336 h

- molecule: "CCOC(=O)CCc1ccccc1O[P@@](=O)(N[C@@H](C)C(=O)OCC)OC[C@H]1O[C@@H](n2cnc3c(N)nc(N)nc32)[C@](C)(O)[C@H]1O"
  Activity: "120%"
- molecule: "Nc1ccn([C@@H]2CS[C@H](CO)O2)c(=O)n1"
  Activity: "91%"
- molecule: "CCOC(=O)[C@H](C)NP(=O)(OC[C@H]1O[C@@H](n2cnc3c(N)nc(N)nc32)[C@](C)(O)[C@@H]1O)Oc1ccccc1 (stereo partly specified)"
  Activity: "140%"
- molecule: "CC(C)OC(=O)CCc1ccccc1OP(=O)(N[C@@H](C)C(=O)OC(C)C)OC[C@H]1O[C@@H](n2cnc3c(N)nc(N)nc32)[C@](C)(O)[C@H]1O (stereo partly specified)"
  Activity: "81%"
- molecule: "Nc1ccn([C@H]2CC[C@@H](CO)O2)c(=O)n1"
  Activity: "220%"
- molecule: "C[C@@]1(O)[C@H](O)[C@@H](CO)O[C@H]1n1cnc2c(N)nc(N)nc21"
  Activity: "170%"

###

- method_description: Cytotoxicity against human HuH7 cells assessed as reduction in rRNA levels incubated for 5 days by RT-PCR assay
- Format: cell-based, Huh-7
- condition_notes: huh-7, 120 h
# reported CC50; entries follow

- compound: "C[C@@]1(O)[C@H](O)[C@@H](CO)O[C@H]1n1cnc2c(N)nc(N)nc21"
  CC50: "> 33 µM"
- compound: "CCOC(=O)[C@H](C)NP(=O)(OC[C@H]1O[C@@H](n2cnc3c(N)nc(N)nc32)[C@](C)(O)[C@@H]1O)Oc1ccccc1 (stereo partly drawn)"
  CC50: "> 10 µM"
- compound: "CCOC(=O)CCc1ccccc1OP(=O)(N[C@@H](C)C(=O)OCC)OC[C@H]1O[C@@H](n2cnc3c(N)nc(N)nc32)[C@](C)(O)[C@H]1O (mixture of isomers)"
  CC50: "> 10 µM"
- compound: "COc1nc(N)nc2c1ncn2[C@@H]1O[C@H](COP(=O)(N[C@@H](C)C(=O)OCC(C)(C)C)Oc2cccc3ccccc23)[C@@H](O)[C@@]1(C)O (stereo partly drawn)"
  CC50: "0.8 µM"
- compound: "CC(C)OC(=O)CCc1ccccc1O[P@@](=O)(N[C@@H](C)C(=O)OC(C)C)OC[C@H]1O[C@@H](n2cnc3c(N)nc(N)nc32)[C@](C)(O)[C@H]1O"
  CC50: "> 10 µM"
- compound: "CCOC(=O)[C@H](C)N[P@](=O)(OC[C@H]1O[C@@H](n2cnc3c(N)nc(N)nc32)[C@](C)(O)[C@H]1O)Oc1ccccc1CCC(=O)OC(C)C"
  CC50: "> 10 µM"
- compound: "CCOC(=O)CCc1ccccc1OP(=O)(N[C@@H](C)C(=O)OCC)OC[C@H]1O[C@@H](n2cnc3c(N)nc(N)nc32)[C@]2(C)OC(=O)O[C@@H]12 (stereo partly drawn)"
  CC50: "> 10 µM"
- compound: "CCOC(=O)CCc1ccccc1O[P@](=O)(N[C@@H](C)C(=O)OC(C)C)OC[C@H]1O[C@@H](n2cnc3c(N)nc(N)nc32)[C@](C)(O)[C@H]1O"
  CC50: "> 10 µM"
